SYSTEM: IKK-β (Homo sapiens, UniProt O14920)
Construct: purchased Promega
Sequence (O14920 whole entry): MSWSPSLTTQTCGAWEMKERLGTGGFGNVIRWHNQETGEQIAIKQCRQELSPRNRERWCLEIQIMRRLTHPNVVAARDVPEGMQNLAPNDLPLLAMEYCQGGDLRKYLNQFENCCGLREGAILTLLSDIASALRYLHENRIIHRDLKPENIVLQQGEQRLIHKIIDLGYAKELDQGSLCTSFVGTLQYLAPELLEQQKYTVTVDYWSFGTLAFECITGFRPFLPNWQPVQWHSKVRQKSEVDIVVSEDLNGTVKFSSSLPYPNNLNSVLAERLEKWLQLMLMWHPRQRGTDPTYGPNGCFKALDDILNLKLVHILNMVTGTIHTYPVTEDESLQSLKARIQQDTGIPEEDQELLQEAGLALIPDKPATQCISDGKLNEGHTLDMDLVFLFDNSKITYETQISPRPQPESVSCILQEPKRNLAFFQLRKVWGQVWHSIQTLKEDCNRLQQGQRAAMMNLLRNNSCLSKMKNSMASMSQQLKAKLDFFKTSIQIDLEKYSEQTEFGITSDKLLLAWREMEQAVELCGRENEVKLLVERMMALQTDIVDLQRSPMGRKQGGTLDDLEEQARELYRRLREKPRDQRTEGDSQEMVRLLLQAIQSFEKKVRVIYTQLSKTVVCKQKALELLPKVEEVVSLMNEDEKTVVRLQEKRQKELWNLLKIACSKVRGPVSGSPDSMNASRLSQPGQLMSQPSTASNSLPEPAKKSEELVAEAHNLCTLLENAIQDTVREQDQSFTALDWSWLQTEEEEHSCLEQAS
ASSAY PROCEDURE: ADP-Glo kinase assay, IKK-β inhibition
Assay type: biochemical
CONDITION DESCRIPTION: 10 µM; mean ± SD; read-out: % inh. at 10 µM IKK-β
Below, each of the molecules is paired with its reported inhibition at 10 µM value.
Give the value in % but do not write % after it.

>>> recorded_number("CC1(C)NC(=O)c2sc(-c3ccncc3)cc2N1 [I, reference compound]")
46

// switching to the query molecule
I'd like to know its inhibition at 10 µM. The molecule in question is O=C1NC2(CCOC2)Nc2cc(-c3ccnc(NC(=O)C4CC4)c3)sc21 (centres unmarked)
39

====

SYSTEM: GSK-3β (Homo sapiens, UniProt P49841)
Sequence (P49841 whole entry): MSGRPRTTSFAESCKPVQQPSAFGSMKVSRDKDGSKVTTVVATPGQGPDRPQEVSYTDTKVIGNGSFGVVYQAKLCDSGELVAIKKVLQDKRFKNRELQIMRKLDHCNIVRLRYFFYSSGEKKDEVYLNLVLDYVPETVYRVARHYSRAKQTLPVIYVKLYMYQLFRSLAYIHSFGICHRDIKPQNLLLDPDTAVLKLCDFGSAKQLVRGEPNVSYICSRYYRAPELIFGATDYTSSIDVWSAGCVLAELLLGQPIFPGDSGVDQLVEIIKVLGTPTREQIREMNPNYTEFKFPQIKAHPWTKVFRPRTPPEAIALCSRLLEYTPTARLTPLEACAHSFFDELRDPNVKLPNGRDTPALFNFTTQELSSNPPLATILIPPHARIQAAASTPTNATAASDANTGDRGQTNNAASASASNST
ASSAY PROCEDURE: Kinetic studies of GSK-3β inhibition (ADP-Glo, varying ATP)
Assay type: biochemical
Set-up: purchased Promega
CONDITION DESCRIPTION: replot of Lineweaver–Burk data, Km versus [I]; read-out: Ki GSK-3β
MEASUREMENT NAME: Ki

I'd like to know its Ki. The molecule in question is O=C1NC2(CCOC2)Nc2cc(-c3ccnc(NC(=O)C4CC4)c3)sc21 (stereo not shown)
2 nM

====

Below, each of the molecules is paired with its reported viability at 24 h, 1 µM value.
ASSAY PROCEDURE: Cytotoxicity, PrestoBlue cell viability assay in BV-2 cells
Assay type: cell-based, mouse
CONDITION DESCRIPTION: mouse, BV-2 microglial cells, 1 µM (log C -6); 24 h; read-out: immunotoxicity in BV-2 cells, % of cell viability
Give the value in % but do not write % after it.

These solved cases illustrate the format of a correct answer.
>>> recorded_number("COc1nc(-c2ccnc(NC(=O)C3CC3)c2)sc1C(N)=O [II, reference compound]")
102
>>> recorded_number("NC(=O)Nc1cc(-c2cccc(NC(=O)C3CC3)c2)sc1C(N)=O")
107

I'd like to know its viability at 24 h, 1 µM. The molecule in question is `O=C1NC2(CCCC2)Nc2cc(-c3ccnc(NC(=O)C4CC4)c3)sc21`
101

Try this molecule next: `CC1(C)NC(=O)c2sc(-c3ccnc(NC(=O)C4CC4)c3)cc2N1`
109

====

Below, each of the compounds is paired with its reported viability at 24 h, 1 µM value.
ASSAY PROCEDURE: Cytotoxicity, PrestoBlue cell viability assay in HT-22 cells
Format: cell-based, mouse
CONDITION DESCRIPTION: mouse, HT-22 hippocampal neuronal cells, 1 µM (log C -6); 24 h; read-out: neurotoxicity in HT-22 cells, % of cell viability
Give the value in % but do not write % after it.

>>> recorded_number("CC(C)C(=O)Nc1cc(-c2cc3c(s2)C(=O)NC(C)(C)N3)ccn1")
84
>>> recorded_number("CC(C)C(=O)Nc1cc(-c2cc(NC(N)=O)c(C(N)=O)s2)ccn1")
89
>>> recorded_number("COc1nc(-c2ccnc(NC(=O)C3CC3)c2)sc1C(N)=O [II, reference compound]")
104
>>> recorded_number("CC1(C)NC(=O)c2sc(-c3ccnc(NC(=O)C4CC4)c3)cc2N1")
105
>>> recorded_number("O=C1NC2(CCCC2)Nc2cc(-c3ccnc(NC(=O)C4CC4)c3)sc21")
105
>>> recorded_number("NC(=O)Nc1cc(-c2ccnc(NC(=O)C3CC3)c2)sc1C(N)=O")
102
>>> recorded_number("NC(=O)Nc1cc(-c2cccc(NC(=O)C3CC3)c2)sc1C(N)=O")
92

// switching to the query compound
I'd like to know its viability at 24 h, 1 µM. The compound in question is O=C1NC2(CCOC2)Nc2cc(-c3ccnc(NC(=O)C4CC4)c3)sc21 (centres unmarked)
108
